Reported values of Ratio for individual entries
Species: Rattus norvegicus
ASSAY_OVERVIEW: Ratio of kinetic parameter Vmax to that of Km in Rat liver ribosome
Set-up: unit not given here
MEASURE: Ratio

MOLECULE	MEASURE	VALUE_OBSERVED
COc1ccc(C[C@H](N)C(=O)N[C@H]2[C@@H](O)[C@H](n3cnc4c(N(C)C)ncnc43)O[C@@H]2CO)cc1	Ratio	55700
COc1ccc(CC(N)C(=O)N[C@@H]2CC[C@@H](n3cnc4c(N(C)C)ncnc43)[C@@H]2O)cc1 (some centres undefined)	Ratio	3160
COc1ccc(CC(N)C(=O)N[C@H]2[C@@H](O)[C@H](n3cnc4c(N(C)C)ncnc43)O[C@@H]2C)cc1 (some centres undefined)	Ratio	23300
COc1ccc(CC(N)C(=O)N[C@@H]2[C@@H](CO)C[C@@H](n3cnc4c(N(C)C)ncnc43)[C@@H]2O)cc1 (some centres undefined)	Ratio	12400

* * *

Species: Rattus norvegicus
ASSAY_OVERVIEW: Kinetic constant was evaluated by using peptidyl transferase assay against Rat liver ribosome system
MEASURE: Vmax (c.p.m.)

MOLECULE	MEASURE	VALUE_OBSERVED
COc1ccc(CC(N)C(=O)N[C@@H]2[C@@H](CO)C[C@@H](n3cnc4c(N(C)C)ncnc43)[C@@H]2O)cc1 (some centres undefined)	Vmax	3720
COc1ccc(CC(N)C(=O)N[C@H]2[C@@H](O)[C@H](n3cnc4c(N(C)C)ncnc43)O[C@@H]2C)cc1 (some centres undefined)	Vmax	14200
COc1ccc(CC(N)C(=O)N[C@@H]2CC[C@@H](n3cnc4c(N(C)C)ncnc43)[C@@H]2O)cc1 (some centres undefined)	Vmax	871
COc1ccc(C[C@H](N)C(=O)N[C@H]2[C@@H](O)[C@H](n3cnc4c(N(C)C)ncnc43)O[C@@H]2CO)cc1	Vmax	14200

* * *

Test system: Escherichia coli
ASSAY_OVERVIEW: Ratio of kinetic parameter Vmax to that of Km in Escherichia coli ribosome system
Parameters: unit not given here

MOLECULE	Ratio
COc1ccc(C[C@H](N)C(=O)N[C@H]2[C@@H](O)[C@H](n3cnc4c(N(C)C)ncnc43)O[C@@H]2CO)cc1 [PUROMYCIN]	10200
COc1ccc(CC(N)C(=O)N[C@@H]2CC[C@@H](n3cnc4c(N(C)C)ncnc43)[C@@H]2O)cc1 (some centres undefined)	3420
COc1ccc(CC(N)C(=O)N[C@@H]2[C@@H](CO)C[C@@H](n3cnc4c(N(C)C)ncnc43)[C@@H]2O)cc1 (some centres undefined)	4540
COc1ccc(CC(N)C(=O)N[C@H]2[C@@H](O)[C@H](n3cnc4c(N(C)C)ncnc43)O[C@@H]2C)cc1 (some centres undefined)	8220

* * *

ASSAY_OVERVIEW: Compound was evaluated for the cytotoxicity by using P-388 in vitro assay against P-388 mouse lymphoid leukemia cells in 4 mL of Fischer's medium with 10% horse serum.
Type: functional
PROTOCOL_CONDITIONS: P388, read-out: ED50 (the source's name)
MEASURE: EC50 (µg/mL)

COMPOUND	MEASURE	UNIT_SYMBOL	VALUE_OBSERVED
COc1ccc(C[C@H](N)C(=O)N[C@H]2[C@@H](O)[C@H](n3cnc4c(N(C)C)ncnc43)O[C@@H]2CO)cc1 [PUROMYCIN]	EC50	µg/mL	0.3
COc1ccc(CC(N)C(=O)N[C@@H]2CC[C@@H](n3cnc4c(N(C)C)ncnc43)[C@@H]2O)cc1 (some centres undefined)	EC50	µg/mL	0.8
COc1ccc(CC(N)C(=O)N[C@H]2[C@@H](O)[C@H](n3cnc4c(N(C)C)ncnc43)O[C@@H]2C)cc1 (some centres undefined)	EC50	µg/mL	0.3
COc1ccc(CC(N)C(=O)N[C@@H]2[C@@H](CO)C[C@@H](n3cnc4c(N(C)C)ncnc43)[C@@H]2O)cc1 (some centres undefined)	EC50	µg/mL	0.3

* * *

Test system: Escherichia coli
ASSAY_OVERVIEW: Kinetic constant was evaluated by using peptidyl transferase assay against Escherichia coli ribosome system

COMPOUND	Vmax
COc1ccc(CC(N)C(=O)N[C@H]2[C@@H](O)[C@H](n3cnc4c(N(C)C)ncnc43)O[C@@H]2C)cc1 (some centres undefined)	1890 c.p.m.
COc1ccc(CC(N)C(=O)N[C@@H]2[C@@H](CO)C[C@@H](n3cnc4c(N(C)C)ncnc43)[C@@H]2O)cc1 (some centres undefined)	850 c.p.m.
COc1ccc(C[C@H](N)C(=O)N[C@H]2[C@@H](O)[C@H](n3cnc4c(N(C)C)ncnc43)O[C@@H]2CO)cc1	1890 c.p.m.
COc1ccc(CC(N)C(=O)N[C@@H]2CC[C@@H](n3cnc4c(N(C)C)ncnc43)[C@@H]2O)cc1 (some centres undefined)	644 c.p.m.
